Tested on: HCC1599
Test: normalised response (% of control), CellTox Green; higher = less cell death (100 = DMSO, 0 = benzethonium chloride kill control)
Details: incubation time: 72 h
Would you mind telling me the reported normalised response of each entry?
Numbers only, in %.

The following compounds have reported results that may help.
Compound | Measurement unit | normalised response
Nc1cc(C(F)(F)F)c(-c2cc(N3CCOCC3)nc(N3CCOCC3)n2)cn1 [Buparlisib] (10000 nM) | % | 93.4
CCn1c(-c2nonc2N)nc2cnc(Oc3cccc(NC(=O)c4ccc(OCCN5CCOCC5)cc4)c3)cc21 (1000 nM) | % | 95

Here is another compound to look at.
Reported normalised response, compound COc1cc(O)c2c(c1)/C=C/C[C@H](O)[C@H](O)C(=O)/C=C\C[C@H](C)OC2=O [(5Z)-7-Oxozeaenol] (100 nM) : ____
108
